Source of measurements: ChEMBL document CHEMBL3217418

Assay: Cytotoxicity against HUVEC assessed as concentration at which viability is > 95 % after 24 hrs by MTT assay
Assay type: cell-based
Conditions: human, HUVEC cells; read-out: MTD
Value kind: MNTC at 24 h

Check out these entries, answers already filled in.
Compound	MNTC at 24 h
CCOC(=O)C1ON(c2ccccc2)C(c2ccccc2F)C12C(=O)Nc1ccc(F)cc12 (centres undefined)	111 µM
CCOC(=O)C1ON(c2ccccc2)C(c2cccc(Cl)c2)C12C(=O)Nc1ccccc12 (centres undefined)	223 µM
CCOC(=O)C1C(c2cccc(C)c2)N(c2ccccc2)OC12C(=O)Nc1ccccc12 (centres undefined)	234 µM
CCOC(=O)C1ON(c2ccccc2)C(c2cccc(F)c2)C12C(=O)Nc1ccccc12 (centres undefined)	231 µM
CCOC(=O)C1ON(c2ccccc2)C(c2ccc(Br)cc2)C12C(=O)Nc1ccccc12 (centres undefined)	203 µM
CCOC(=O)C1ON(c2ccccc2)C(c2ccc(N(C)C)cc2)C12C(=O)Nc1ccc(F)cc12 (centres undefined)	110 µM

Given CCOC(=O)C1C(c2cccc(OC)c2OC)N(c2ccccc2)OC12C(=O)Nc1ccc(F)cc12 (centres undefined) , state its recorded MNTC at 24 h.
102 µM

If you can, please state the reported MNTC at 24 h value of CCOC(=O)C1C(c2ccc(C)cc2)N(c2ccccc2)OC12C(=O)Nc1ccccc12 (centres undefined) .
234 µM

Tell me the measured MNTC at 24 h of CCOC(=O)C1ON(c2ccccc2)C(c2ccc([N+](=O)[O-])cc2)C12C(=O)Nc1ccc(F)cc12 (centres undefined) , please.
105 µM
